pIC50 listing for selected compounds.
# Target Or Test System: Acetylcholinesterase (Torpedo californica, UniProt P04058)
# Sequence (P04058 whole entry): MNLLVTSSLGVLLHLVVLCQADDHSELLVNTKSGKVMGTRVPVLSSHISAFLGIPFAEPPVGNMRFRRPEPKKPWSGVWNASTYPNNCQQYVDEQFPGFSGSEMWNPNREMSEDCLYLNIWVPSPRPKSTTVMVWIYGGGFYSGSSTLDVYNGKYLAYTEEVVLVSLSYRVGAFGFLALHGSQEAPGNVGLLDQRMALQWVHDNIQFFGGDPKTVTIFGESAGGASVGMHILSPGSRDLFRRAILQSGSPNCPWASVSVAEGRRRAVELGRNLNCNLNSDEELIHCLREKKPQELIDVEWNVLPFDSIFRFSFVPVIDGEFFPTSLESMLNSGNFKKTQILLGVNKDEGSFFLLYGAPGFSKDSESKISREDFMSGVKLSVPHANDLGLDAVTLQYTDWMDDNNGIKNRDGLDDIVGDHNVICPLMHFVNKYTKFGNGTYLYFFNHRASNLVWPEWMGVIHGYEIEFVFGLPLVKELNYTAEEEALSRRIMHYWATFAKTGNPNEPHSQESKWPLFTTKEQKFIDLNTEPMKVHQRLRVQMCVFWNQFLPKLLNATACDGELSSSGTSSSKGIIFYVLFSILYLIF
# Protocol Description: Inhibition of Torpedo californica […] AChE using acetylthiocholine/DTNB as substrate assessed as ROS-induced enzyme inactivation preincubated for 10 mins followed by substrate addition measured every 30 secs for 20 mins in presence of horseradish peroxidase and H2O2
# Set-up: species or system Tetronarce californica
Schema: pIC50 number; meaning minus log10 of the concentration expressed in molar units.

# Chem Smiles, pIC50
data = [
    ("Cc1cccc(Nc2ccccc2C(=O)NCCCCCCCNc2c3c(nc4cc(Cl)ccc24)CCCC3)c1C", 7.53),
    ("Cc1cccc(Nc2ccccc2C(=O)NCCCCCC(=O)NCCCNc2c3c(nc4cc(Cl)ccc24)CCCC3)c1C", 8.11),
    ("Cc1cccc(Nc2ccccc2C(=O)NCCC(=O)NCCCCCCCNc2c3c(nc4cc(Cl)ccc24)CCCC3)c1C", 8.00),
    ("Cc1cccc(Nc2ccccc2C(=O)NCCCC(=O)NCCCCCCCCNc2c3c(nc4ccccc24)CCCC3)c1C", 7.84),
]

Form field pIC50, entry Cc1cccc(Nc2ccccc2C(=O)NCC(=O)NCCCCCCCCNc2c3c(nc4cc(Cl)ccc24)CCCC3)c1C : 7.74

Kindly note the recorded pIC50 for Cc1cccc(Nc2ccccc2C(=O)NCCCCCC(=O)NCCCCCCCNc2c3c(nc4cc(Cl)ccc24)CCCC3)c1C , which is 7.87

Reported pIC50 of Cc1cccc(Nc2ccccc2C(=O)NCC(=O)NCCCCCCCCNc2c3c(nc4ccccc24)CCCC3)c1C : 7.76

So, Cc1cccc(Nc2ccccc2C(=O)NCCCCCCCCCNc2c3c(nc4ccccc24)CCCC3)c1C ? Its pIC50 was 7.82

Value of measured pIC50 for the entry Cc1cccc(Nc2ccccc2C(=O)NCCCCCCNc2c3c(nc4cc(Cl)ccc24)CCCC3)c1C : 8.99

Consider Cc1cccc(Nc2ccccc2C(=O)NCCCCCC(=O)NCCCCCCCCNc2c3c(nc4ccccc24)CCCC3)c1C . Its measured pIC50 is 8.20

###

Known pIC50 of a selection of compounds
# Target Or Test System: Acetylcholinesterase (Torpedo californica, UniProt P04058)
# Protocol Description: Inhibition of Torpedo californica […] AChE using acetylthiocholine/DTNB as substrate preincubated for 10 mins followed by substrate addition measured every 30 secs for 30 mins by Ellmans method
# Set-up: species or system Tetronarce californica
Note on pIC50: it is the negative log10 of concentration, concentration in mol/L.

Observe how each entry below is paired with its result.
# Chem Smiles, Obs Value
data = [
    ("Cc1cccc(Nc2ccccc2C(=O)NCCCC(=O)NCCCCCCCNc2c3c(nc4cc(Cl)ccc24)CCCC3)c1C", 8.10),
    ("Cc1cccc(Nc2ccccc2C(=O)NCCCCCC(=O)NCCCCCCNc2c3c(nc4ccccc24)CCCC3)c1C", 5.84),
    ("Cc1cccc(Nc2ccccc2C(=O)NCC(=O)NCCCNc2c3c(nc4ccccc24)CCCC3)c1C", 7.06),
]

Recorded pIC50 for Cc1cccc(Nc2ccccc2C(=O)NCCC(=O)NCCCCCCCCNc2c3c(nc4ccccc24)CCCC3)c1C on Acetylcholinesterase (Torpedo californica, UniProt P04058) was 8.07

###

# Target Or Test System: UniProt P04058
# Protocol Description: Inhibition of Torpedo californica […] AChE using acetylthiocholine/DTNB as substrate assessed as ROS-induced enzyme inactivation preincubated for 10 mins followed by substrate addition measured every 30 secs for 20 mins in presence of horseradish peroxidase and H2O2
# Design: species or system Tetronarce californica
pIC50: −log10 of the molar value.
Each entry gets Not satisfied if its pIC50 stays under 9, and Satisfied if its pIC50 is 9 or above.

# Chem Smiles, Class Assignment
data = [
    ("Cc1cccc(Nc2ccccc2C(=O)NCC(=O)NCCCCCCCNc2c3c(nc4cc(Cl)ccc24)CCCC3)c1C", "Satisfied"),
]

pIC50 >= 9 for Cc1cccc(Nc2ccccc2C(=O)NCCCCCCCCCCCCNc2c3c(nc4ccccc24)CCCC3)c1C ?
Not satisfied

Textbook exercise: given the entry Clc1c2c(nc3ccccc13)CCCC2 , state whether its pIC50 is greater than or equal to 9.
Not satisfied

Determine whether this compound has pIC50 no lower than 9: Cc1cccc(Nc2ccccc2C(=O)NCC(=O)NCCCNc2c3c(nc4ccccc24)CCCC3)c1C
Not satisfied

###

# Target Or Test System: Acetylcholinesterase (Torpedo californica, UniProt P04058)
# Protocol Description: Inhibition of Torpedo californica […] AChE using acetylthiocholine/DTNB as substrate preincubated for 10 mins followed by substrate addition measured every 30 secs for 30 mins by Ellmans method
# Set-up: species or system Tetronarce californica
The reader will find reported IC50 values listed item by item below.
Write down the numeric answer in nM and omit the unit.

Record excerpt, results attached:
# Chem Smiles, Target Or Test System, Units Text, IC50
data = [
    ("Cc1cccc(Nc2ccccc2C(=O)NCCCC(=O)NCCCNc2c3c(nc4cc(Cl)ccc24)CCCC3)c1C", "Acetylcholinesterase (Torpedo californica, UniProt P04058)", "nM", 7.13),
    ("Cc1cccc(Nc2ccccc2C(=O)NCCCC(=O)NCCCCCCCNc2c3c(nc4ccccc24)CCCC3)c1C", "Acetylcholinesterase (Torpedo californica, UniProt P04058)", "nM", 8.09),
    ("Cc1cccc(Nc2ccccc2C(=O)NCCC(=O)NCCCCCCCNc2c3c(nc4cc(Cl)ccc24)CCCC3)c1C", "Acetylcholinesterase (Torpedo californica, UniProt P04058)", "nM", 6.67),
]

Form: molecule = Cc1cccc(Nc2ccccc2C(=O)NCCCCCC(=O)NCCCCCCCNc2c3c(nc4cc(Cl)ccc24)CCCC3)c1C ; IC50 = 11.1

Reported IC50 ( Cc1cccc(Nc2ccccc2C(=O)NCCCCCCCCCNc2c3c(nc4cc(Cl)ccc24)CCCC3)c1C ) = 6.94

// Cc1cccc(Nc2ccccc2C(=O)NCC(=O)NCCCCCCNc2c3c(nc4cc(Cl)ccc24)CCCC3)c1C : IC50 value = 7.65

###

# Target Or Test System: Acetylcholinesterase (Torpedo californica, UniProt P04058)
# Protocol Description: Inhibition of Torpedo californica […] AChE using acetylthiocholine/DTNB as substrate preincubated for 10 mins followed by substrate addition measured every 30 secs for 30 mins by Ellmans method
# Set-up: species or system Tetronarce californica
Known pIC50 of a selection of molecules
pIC50 field: float, defined as -log10 of concentration (mol/L).

Field: example entries. Status: answers known.
# Molecule, Measured Endpoint, Obs Value
rows = [
    ("Cc1cccc(Nc2ccccc2C(=O)NCCCCCC(=O)NCCCNc2c3c(nc4ccccc24)CCCC3)c1C", "pIC50", 6.09),
    ("Cc1cccc(Nc2ccccc2C(=O)NCC(=O)NCCCCCCNc2c3c(nc4ccccc24)CCCC3)c1C", "pIC50", 7.74),
]

Entry under test: Cc1cccc(Nc2ccccc2C(=O)NCCCCCCCCCNc2c3c(nc4ccccc24)CCCC3)c1C . Its pIC50 was 8.81

Lab note: Cc1cccc(Nc2ccccc2C(=O)NCCCC(=O)NCCCCNc2c3c(nc4ccccc24)CCCC3)c1C gave pIC50 of 7.05

Consider Cc1cccc(Nc2ccccc2C(=O)NCC(=O)NCCCCCCCCNc2c3c(nc4ccccc24)CCCC3)c1C . Its measured pIC50 is 8.48

Reported pIC50 for Cc1cccc(Nc2ccccc2C(=O)NCCCCCCCCNc2c3c(nc4ccccc24)CCCC3)c1C was 7.12

response.value for CN(C)C(=O)Oc1ccc[n+](C)c1 [PYRIDOSTIGMINE] (field: pIC50) = 7.09

Entry under test: Cc1cccc(Nc2ccccc2C(=O)NCCCCCCNc2c3c(nc4cc(Cl)ccc24)CCCC3)c1C . Its pIC50 was 5.14

// pIC50 value for Cc1cccc(Nc2ccccc2C(=O)NCCCCCC(=O)NCCCCCCCCNc2c3c(nc4cc(Cl)ccc24)CCCC3)c1C : 7.10

Item: Cc1cccc(Nc2ccccc2C(=O)NCCCCCCCCCCCCNc2c3c(nc4ccccc24)CCCC3)c1C | pIC50: 7.29

// field: pIC50; key: Cc1cccc(Nc2ccccc2C(=O)NCC(=O)NCCCCCCCNc2c3c(nc4ccccc24)CCCC3)c1C ; value = 8.26

###

# Target Or Test System: Acetylcholinesterase (Torpedo californica, UniProt P04058)
# Protocol Description: Inhibition of Torpedo californica […] AChE using acetylthiocholine/DTNB as substrate assessed as ROS-induced enzyme inactivation preincubated for 10 mins followed by substrate addition measured every 30 secs for 20 mins in presence of horseradish peroxidase and H2O2
# Parameters: species or system Tetronarce californica
Measured Endpoint: IC50 (nM)
The response must be a number in nM with no trailing unit.

A selection of reference data follows.
# Chem Smiles, Units Text, IC50
records = [
    ("Cc1cccc(Nc2ccccc2C(=O)NCCCCCCCCNc2c3c(nc4ccccc24)CCCC3)c1C", "nM", 0.045),
    ("Cc1cccc(Nc2ccccc2C(=O)NCCCC(=O)NCCCCCCCNc2c3c(nc4ccccc24)CCCC3)c1C", "nM", 44.6),
]

Consider the record given below.
Item Cc1cccc(Nc2ccccc2C(=O)NCCC(=O)NCCCCCCNc2c3c(nc4cc(Cl)ccc24)CCCC3)c1C ; assay system Acetylcholinesterase (Torpedo californica, UniProt P04058); IC50 reported as 2.96

From: ChEMBL document CHEMBL3217623
